target.of.assay: T1, human IL-4Rα (hIL-4Rα) monomeric protein (human, UniProt P24394 26-232, limits assumed)
T1 construct: also called hIL-4Rα antigen; barcoded hIL-4Rα
measurement.notes: Biacore (SPR); negative log10 of Kd
value.kind: negLog10Kd
Form: value (number only, do not type unit).

Consider the reported negLog10Kd for these binders:
binder: Table 1 Line # 41 antibody (SP_Plasma_cell) (antibody, human IgG4, V domains shown, Cloned with human IgG4/human Igk constants for Kd; barcode counts are of the source cell's own IgG) VH: EVQLVESGGGLVQPGRSLRLSCAASGFTFDDYAMHWVRQAPGRGLEWVSGISWKGDALGYADSVKGRFTISRDNAKNSLYLQMSSLRAEDTALYYCAKDTGSYHYYYGLDVWGQGTTVTVSS VL: DIQMTQSPSSLSASVGDRVTITCRASQGIRNDLGWYQQKPGKAPERLIYAASNLQSGVPSRFSGSGSGTEFTLTISSLQPEDFATFYCLQHYSYPLTFGGGTKVEIK
negLog10Kd: 6.82
--
binder: Table 1 Line # 11 antibody (BM_Plasma_cell) (antibody, human IgG4, V domains shown, Cloned with human IgG4/human Igk constants for Kd; barcode counts are of the source cell's own IgG) VH: EVQLVESGGGLVQPGRSLRLSCAASGFTFDDYAMHWVRQAPGKGLEWVSGISWNSGSIGYADSVKGRFTISRDNAKNSLYLQMNSLRAEDTALYYCARDYSSAWYGYFDSWGQGTLVTVSS VL: DIQMTQSPSSLSASVGDRVTITCRASQGINNYLAWYQQKPGKIPKLLIFTASTLQSGVPSRFSGSGSGTDFTLTINSLQPEDVATYYCQNYNSVPRTFGQGTKVEIK
negLog10Kd: 7.56

Now for another entry.
Which measured negLog10Kd value corresponds to Table 1 Line # 37 antibody (SP_B_cell) (antibody, human IgG4, V domains shown, Cloned with human IgG4/human Igk constants for Kd; barcode counts are of the source cell's own IgG) VH: QVHLVESGGDVVQPGRSLRLSCAASGFTFSYYGMHWVRQAPFKGLEWVAVIWYDGSNKYYADSVKGRFTITRDNSKNTVYLQMNSLRAEDTAIYYCARWGGFGVTGTHLDYWGQGTLVTVSS VL: DIQLTQSPSLLSASVGDRVTITCWASQDIAGHFAWYQQKPGTVPKLLIYAISTLDSGVPSRFSGSRSGTEFTLTISSLQPEDFATYYCQHLNSYPYTFGQGTKLEIK ?
6.71
